Measured pKd of individual entries
Biological target: VHL (VBC complex: pVHL54-213, eloB1-104, eloC17-112) (Homo sapiens)
Construct: equimolar complex of pVHL54-213, eloB1-104 and; made in house; host or cells: E. coli
Sequence (P40337 54-213): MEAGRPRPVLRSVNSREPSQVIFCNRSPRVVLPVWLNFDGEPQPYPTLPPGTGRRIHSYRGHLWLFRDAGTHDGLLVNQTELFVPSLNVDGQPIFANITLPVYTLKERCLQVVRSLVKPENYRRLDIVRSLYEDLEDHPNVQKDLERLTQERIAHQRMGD
Sequence (Q15370 1-104 partner limits assumed): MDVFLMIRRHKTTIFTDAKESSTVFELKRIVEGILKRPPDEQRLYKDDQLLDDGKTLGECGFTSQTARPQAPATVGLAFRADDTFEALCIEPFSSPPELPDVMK
Sequence (Q15369 17-112 partner limits assumed): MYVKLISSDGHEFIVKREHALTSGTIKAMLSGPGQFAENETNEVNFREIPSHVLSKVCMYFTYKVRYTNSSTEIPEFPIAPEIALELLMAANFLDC
Test: Surface plasmon resonance (SPR) steady-state binding to immobilised biotinylated AviVBC
Conditions: SPR, responses too low, data could not be fitted; read-out: KD
Experimental: The KD of each compound to VHL was determined by surface plasmon resonance (SPR) experiments. 3. Protein expression, purification and biotinylation […] Where Req is the steady-state response at a given concentration C. […] KD is the dissociation constant to be determined and RMAX is the maximum response expected for a given compound according to the equation below: […]
pKd: −log10 of the molar value.

Inquiry: Item Cc1ncsc1-c1ccc(CNC(=O)[C@@H]2C[C@@H](O)CN2)cc1C(F)(F)F [Compound 5] has what recorded pKd?
Reply text: < 3.00

Inquiry: I would be grateful if you could share the reported pKd for O=C(NCc1ccc(Br)cc1C(F)(F)F)[C@@H]1C[C@@H](O)CN1 [Compound 9] .
Reply text: < 3.00

Further cases:
Inquiry: Need pKd, item O=C(NCc1ccc(Br)c(C(F)(F)F)c1)[C@@H]1C[C@@H](O)CN1 [Compound 1]
Reply text: < 3.00
